Target: human TLR7 (Homo sapiens)
Sequence (Q9NYK1 27-1049): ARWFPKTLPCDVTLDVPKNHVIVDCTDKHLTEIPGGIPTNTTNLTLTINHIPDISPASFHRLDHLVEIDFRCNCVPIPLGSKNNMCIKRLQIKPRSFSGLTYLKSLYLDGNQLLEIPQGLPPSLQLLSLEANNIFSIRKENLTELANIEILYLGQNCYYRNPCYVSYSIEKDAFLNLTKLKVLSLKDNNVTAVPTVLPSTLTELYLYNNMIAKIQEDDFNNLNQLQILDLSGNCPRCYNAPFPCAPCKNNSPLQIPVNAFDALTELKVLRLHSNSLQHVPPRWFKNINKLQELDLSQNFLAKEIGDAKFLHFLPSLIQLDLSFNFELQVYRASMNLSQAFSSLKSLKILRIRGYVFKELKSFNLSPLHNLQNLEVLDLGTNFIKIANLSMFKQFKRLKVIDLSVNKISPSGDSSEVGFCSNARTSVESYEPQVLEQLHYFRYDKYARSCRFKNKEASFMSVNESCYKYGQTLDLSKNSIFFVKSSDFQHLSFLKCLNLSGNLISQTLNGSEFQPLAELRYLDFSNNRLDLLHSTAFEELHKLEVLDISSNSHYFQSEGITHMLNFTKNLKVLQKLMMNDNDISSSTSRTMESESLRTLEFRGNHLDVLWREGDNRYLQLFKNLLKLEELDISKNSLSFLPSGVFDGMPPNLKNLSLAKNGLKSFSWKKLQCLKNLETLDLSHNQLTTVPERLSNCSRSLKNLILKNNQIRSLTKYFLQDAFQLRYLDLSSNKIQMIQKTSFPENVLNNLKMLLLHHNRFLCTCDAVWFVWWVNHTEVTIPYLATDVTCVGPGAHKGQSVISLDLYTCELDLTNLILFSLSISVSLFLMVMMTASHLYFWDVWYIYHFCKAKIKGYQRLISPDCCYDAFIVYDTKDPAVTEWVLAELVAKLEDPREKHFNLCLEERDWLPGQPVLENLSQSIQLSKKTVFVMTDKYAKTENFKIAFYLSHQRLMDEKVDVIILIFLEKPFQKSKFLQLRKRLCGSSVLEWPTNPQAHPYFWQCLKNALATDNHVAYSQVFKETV
Assay: TLR7 inhibition reporter assay (HEK-Blue cells, SEAP reporter)
Settings: HEK-Blue cells overexpressing human TLR7, stimulated with gardiquimod 7.5 μM, 22 hour incubation
Quantity Kind: pIC50
# log scale: pIC50 equals minus log10 of the concentration in mol/L

**Q:** For human TLR7 (Homo sapiens), give the measured pIC50 of the entry COc1ccc(-c2[nH]c3cnc(-c4ccc(N5CCN(C(C)C)CC5)cc4)cc3c2C)cc1OC [Example 1]
**A:** 5.77

**Q:** For human TLR7 (Homo sapiens), give the measured pIC50 of the entry COc1ccc(-c2c(C)[nH]c3cnc(C4CCN(C5CCN(C(=O)c6ccccc6)CC5)CC4)cc23)cc1OC [Example 14]
**A:** 5.09

**Q:** For human TLR7 (Homo sapiens), give the measured pIC50 of the entry Cc1nc(-c2ccc(N3CCN(CCCO)CC3)c(F)c2F)cc2c1cc(-c1ccc(S(C)(=O)=O)cc1)n2C [Example 55]
**A:** 5.24

**Q:** For human TLR7 (Homo sapiens), give the measured pIC50 of the entry COc1ccc(-c2cc3cnc(-c4ccc(N5CCN(C(=O)c6ccccc6)CC5)cc4)cc3n2C)cc1OC [Example 29]
**A:** 4.84

* * *

Target: human TLR7 (Homo sapiens, UniProt Q9NYK1)
Experiment: TLR7 inhibition reporter assay (HEK-Blue cells, SEAP reporter)
Conditions: HEK-Blue cells overexpressing human TLR7, stimulated with gardiquimod 7.5 μM, 22 hour incubation
Labelling: IC50 reported below 3 µM becomes T; at or above becomes F.

**Q:** Is the reported IC50 for Cc1nc(-c2ccc(CN3CCN(CCC(C)(C)O)CC3)cc2)cc2c1cc(-c1ccc(S(C)(=O)=O)cc1)n2C1CC1 strictly below 3 µM?
**A:** F

**Q:** Is the reported IC50 for COc1ccc(-c2cc3cnc(-c4ccc(N5CCN(C)CC5)cc4)cc3n2C)cc1OC strictly below 3 µM?
**A:** T

**Q:** Is the reported IC50 for CC(C)CN1CCN(c2ccc(-c3cc4c(cn3)cc(-c3ccc(S(C)(=O)=O)cc3)n4C)cc2)CC1 strictly below 3 µM?
**A:** F

**Q:** Is the reported IC50 for COCCN1C2CCC1CN(c1ccc(-c3cc4c(cc(-c5ccc(S(C)(=O)=O)cc5)n4C)c(C)n3)cc1F)C2 strictly below 3 µM?
**A:** T

**Q:** Is the reported IC50 for COc1ccc(-c2c(C)[nH]c3cnc(C4CCN(C(=O)CCN5CCCC5)CC4)cc23)cc1OC strictly below 3 µM?
**A:** F

**Q:** Is the reported IC50 for COc1ccc(-c2cc3cnc(-c4ccc(N5CCN(CC6CC6)CC5)cc4)cc3n2C)cc1OC strictly below 3 µM?
**A:** T

**Q:** Is the reported IC50 for Cc1nc(-c2ccc(N3CCN(CCCO)CC3)cc2)cc2c1cc(-c1ccc(S(C)(=O)=O)cc1)n2C strictly below 3 µM?
**A:** F

**Q:** Is the reported IC50 for Cc1nc(-c2ccc(N3CCN(CCCO)CC3)cc2)cc2c1cc(-c1ccc(S(=O)(=O)C3CC3)cc1)n2C strictly below 3 µM?
**A:** F

**Q:** Is the reported IC50 for COc1ccc(-c2c(C)[nH]c3cnc(C4CCN(C(=O)CN5CCCC5)CC4)cc23)cc1OC strictly below 3 µM?
**A:** F

**Q:** Is the reported IC50 for CC(C)(O)CN1CCN(Cc2ccc(-c3cc4c(cn3)cc(-c3ccc(S(C)(=O)=O)cc3)n4C3CC3)cc2)CC1 strictly below 3 µM?
**A:** T

**Q:** Is the reported IC50 for Cc1nc(-c2ccc(N3CCN(C4CCOC4)CC3)cc2)cc2c1cc(-c1ccc(S(C)(=O)=O)cc1)n2C (stereo not drawn) strictly below 3 µM?
**A:** F

**Q:** Is the reported IC50 for COc1ccc(-c2c(C)n(C)c3cnc(C4CCN(C5CCN(C(=O)c6ccccc6)CC5)CC4)cc23)cc1OC strictly below 3 µM?
**A:** F

**Q:** Is the reported IC50 for CC(C)N1CCN(Cc2ccc(-c3cc4c(cc(-c5ccc(S(C)(=O)=O)cc5)n4C)c(C(C)(C)O)n3)cc2)CC1 strictly below 3 µM?
**A:** F

**Q:** Is the reported IC50 for Cc1nc(-c2ccc(N3CCN(CC(C)C)CC3)c(F)c2F)cc2c1cc(-c1ccc(S(C)(=O)=O)cc1)n2C strictly below 3 µM?
**A:** F

**Q:** Is the reported IC50 for COc1ccc(-c2cc3cnc(C4CCN(C5CCN(C(=O)c6ccccc6)CC5)CC4)cc3n2C)cc1OC strictly below 3 µM?
**A:** F

* * *

Molecular target: UniProt Q9NR97
Sequence (Q9NR97 27-1041): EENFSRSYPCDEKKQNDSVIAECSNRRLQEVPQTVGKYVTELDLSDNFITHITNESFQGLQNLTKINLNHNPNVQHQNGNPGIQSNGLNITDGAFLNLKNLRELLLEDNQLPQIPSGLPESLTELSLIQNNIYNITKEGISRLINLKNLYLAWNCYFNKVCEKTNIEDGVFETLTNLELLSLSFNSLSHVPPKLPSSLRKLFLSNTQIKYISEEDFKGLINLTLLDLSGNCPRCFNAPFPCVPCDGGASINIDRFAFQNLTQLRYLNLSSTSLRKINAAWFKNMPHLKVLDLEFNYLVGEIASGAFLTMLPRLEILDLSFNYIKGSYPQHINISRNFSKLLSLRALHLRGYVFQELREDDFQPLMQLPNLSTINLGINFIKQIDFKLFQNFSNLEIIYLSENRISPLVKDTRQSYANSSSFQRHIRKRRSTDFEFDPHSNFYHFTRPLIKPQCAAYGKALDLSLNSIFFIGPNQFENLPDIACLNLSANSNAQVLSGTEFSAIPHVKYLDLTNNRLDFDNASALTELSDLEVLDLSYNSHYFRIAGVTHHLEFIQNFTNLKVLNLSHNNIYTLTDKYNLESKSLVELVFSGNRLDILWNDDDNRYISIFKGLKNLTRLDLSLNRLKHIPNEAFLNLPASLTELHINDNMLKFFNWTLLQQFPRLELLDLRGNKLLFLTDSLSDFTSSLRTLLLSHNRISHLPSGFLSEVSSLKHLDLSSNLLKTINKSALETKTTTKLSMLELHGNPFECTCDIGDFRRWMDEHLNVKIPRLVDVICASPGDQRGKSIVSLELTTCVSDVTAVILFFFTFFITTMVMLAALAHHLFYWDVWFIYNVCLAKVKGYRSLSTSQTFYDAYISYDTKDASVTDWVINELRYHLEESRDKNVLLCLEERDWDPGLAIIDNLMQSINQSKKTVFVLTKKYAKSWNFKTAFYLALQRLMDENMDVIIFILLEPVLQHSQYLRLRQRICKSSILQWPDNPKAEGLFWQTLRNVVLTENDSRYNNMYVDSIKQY
Assay: TLR8 inhibition reporter assay (HEK-Blue cells, SEAP reporter)
Conditions: HEK-Blue cells overexpressing human TLR8, stimulated with R848 15.9 μM, 22 hour incubation
Quantity Kind: pIC50
# log scale: pIC50 equals minus log10 of the concentration in mol/L

**Q:** Give the measured pIC50 for COc1ccc(-c2c(C)[nH]c3cnc(C4CCN(C5CCN(C(=O)OCc6ccccc6)CC5)CC4)cc23)cc1OC
**A:** 4.63

**Q:** Give the measured pIC50 for Cc1nc(-c2ccc(C3(O)CC4CCC(C3)N4C(C)C)c(F)c2)cc2c1cc(-c1ccc(S(C)(=O)=O)cc1)n2C (stereo not shown)
**A:** 5.89

**Q:** Give the measured pIC50 for COCCN1C2CCC1CN(c1ccc(-c3cc4c(cc(-c5ccc(S(C)(=O)=O)cc5)n4C)c(C)n3)cc1)C2
**A:** 4.71

**Q:** Give the measured pIC50 for COc1ccc(-c2cc3cnc(-c4ccc(N5CCN(CC6CC6)CC5)cc4)cc3n2C)cc1OC
**A:** 5.82

These data points were gathered from patent US12590091B2.
